These measurements were taken from ChEMBL document CHEMBL5223171.

# Test system: A549
# EXPERIMENT: Cytotoxicity against human A549 cells assessed as reduction in cell viability incubated for 72 hrs by MTT assay
# Assay type: functional, cell-based
# CONDITION LABEL: A549, 72 h
Record form. Attribute: IC50. Fill in for each entry.

Below, each entry is followed by its recorded IC50 result.
COMPOUND | MEASUREMENT
CCC(C)SSc1ncc[nH]1 (stereo not drawn) | > 20 µM
C=C(COC(=O)Nc1ccc(C)cc1)C(=O)NC(C(=O)NCC(=O)OCC)c1ccc(Cl)cc1Cl (stereo not drawn) | > 20 µM
C=C(COC(=O)Nc1ccc(C)cc1)C(=O)NC(C(=O)NC(C)(C)C)c1ccc(Cl)cc1Cl (stereo not drawn) | > 20 µM
C=C(COC(=O)Nc1ccc(C)cc1)C(=O)NC(C(=O)NCC(=O)OCC)c1ccc(F)cc1 (stereo not drawn) | > 20 µM
C=C(COC(=O)Nc1ccc(C)cc1)C(=O)NC(C(=O)NC(C)(C)C)c1ccc(F)cc1 (stereo not drawn) | > 20 µM

Please go through the list and note IC50 for each compound.
1. C=C(COC(=O)Nc1ccc(C)cc1)C(=O)NC(C(=O)NC(C)(C)C)c1ccc(Cl)cc1 (stereo not drawn)
2. C=C(COC(=O)Nc1ccc(C)cc1)C(=O)NC(C(=O)NCC(=O)OCC)c1ccc(Br)cc1 (stereo not drawn)

Reply:
1: > 20 µM; 2: > 20 µM
